- testSystem: Human rhinovirus A protease (Human rhinovirus sp.) (UniProt Q4U254)
- protocolText: Binding affinity on human Rhinovirus 3C protease (rhinovirus serotype 14)
quantityMeasured: K obs / 1 (M⁻¹ s⁻¹)
# value in M⁻¹ s⁻¹; strip the unit string

-- ask Record request: K obs / 1 value, item CCOC(=O)/C=C/[C@H](CCC(N)=O)NC(=O)[C@H](Cc1ccccc1)NC(=O)[C@@H](NC(=O)OCc1ccccc1)[C@H](C)SC(C)C
-- reply 40000

-- ask Can you check CCOC(=O)/C=C/[C@H](CCC(N)=O)NC(=O)[C@H](C)NC(=O)[C@H](CC(C)C)NC(=O)OCc1ccccc1 next?
-- reply 1300

-- ask Thanks! And CCOC(=O)/C=C/[C@H](CCC(N)=O)NC(=O)[C@H](Cc1ccccc1)NC(=O)[C@H](CC(C)C)NC(=O)CO ?
-- reply 2100

-- ask # iterate: CCOC(=O)/C=C/[C@H](CCC(N)=O)NC(=O)[C@H](Cc1ncc[nH]1)NC(=O)[C@H](CC(C)C)NC(=O)OCc1ccccc1
-- reply 6800

-- ask Now this one: CCOC(=O)/C=C/[C@H](CCC(=O)N(C)C)NC(=O)[C@H](Cc1ccccc1)NC(=O)[C@H](CC(C)C)NC(=O)OCc1ccccc1
-- reply 60

###

- testSystem: Human rhinovirus A protease (Human rhinovirus sp.) (UniProt Q4U254)
- protocolText: Binding affinity on human Rhinovirus 3C protease (rhinovirus serotype 14)
Would you mind telling me the reported K obs / 1 of each entry?
Just the number please, in M⁻¹ s⁻¹, no unit attached.

-- ask What does the data say about its K obs / 1? Entry: CCOC(=O)/C=C/[C@H](CCC(N)=O)NC(=O)[C@H](Cc1ccccc1)NC(=O)[C@H](CC(C)C)NC(=O)OCc1ccncc1
-- reply 12000

-- ask And then CCOC(=O)/C=C/[C@H](CCC(N)=O)NC(=O)[C@H](Cc1ccccc1)NC(=O)[C@H](CC(C)C)NC(=O)SCc1ccccc1 , what is it?
-- reply 280000

-- ask Then CCOC(=O)/C=C/[C@H](CCC(N)=O)NC(=O)[C@H](Cc1ccccc1)NC(=O)[C@H](C)NC(=O)OCc1ccccc1 ?
-- reply 11300

-- ask Try this molecule too: CCOC(=O)/C=C/[C@H](COC(N)=O)NC(=O)[C@H](Cc1ccccc1)NC(=O)[C@H](CC(C)C)NC(=O)OCc1ccccc1
-- reply 5600

-- ask CCOC(=O)/C=C/[C@H](CCC(N)=O)NC(=O)[C@H](Cc1ccccc1)NC(=O)[C@@H](NC(=O)OCc1ccccc1)C(C)(C)O ?
-- reply 98000

-- ask Now consider CCOC(=O)/C=C/[C@H](CCC(N)=O)NC(=O)[C@H](Cc1ccccc1)NC(=O)[C@H](CC(C)C)NC(=O)C(C)C .
-- reply 18800

-- ask What do you have for CCOC(=O)/C=C/[C@H](CCC(N)=O)NC(=O)[C@H](Cc1ccc(F)cc1)NC(=O)[C@H](CC(C)C)NC(=O)OCc1ccccc1 ?
-- reply 46000

###

- testSystem: UniProtKB Q4U254
- protocolText: Binding affinity on human Rhinovirus 3C protease (rhinovirus serotype 16)
quantityMeasured: K obs / 1
Number first, unit second.

-- ask Field: K obs / 1 (UniProtKB Q4U254). Entry: CCOC(=O)/C=C/[C@H](CCC(N)=O)NC(=O)[C@H](Cc1ccc(CCO)cc1)NC(=O)[C@H](CC(C)C)NC(=O)OCc1ccccc1
-- reply 1300 M⁻¹ s⁻¹

-- ask And then CCOC(=O)/C=C/[C@H](CCC(N)=O)NC(=O)[C@H](Cc1ccc(OC)cc1)NC(=O)[C@H](CC(C)C)NC(=O)OCc1ccccc1 , what is it?
-- reply 3400 M⁻¹ s⁻¹

-- ask Continue with CCOC(=O)/C=C/[C@H](CCC(N)=O)NC(=O)[C@H](Cc1ccc(F)cc1)NC(=O)[C@H](CC(C)C)NC(=O)OCc1ccccc1
-- reply 9200 M⁻¹ s⁻¹

-- ask // query: CCC[C@H](NC(=O)[C@H](CC(C)C)NC(=O)OCc1ccccc1)C(=O)N[C@H](/C=C/C(=O)OCC)CCC(N)=O
-- reply 1200 M⁻¹ s⁻¹

-- ask Now the same for CCOC(=O)/C=C/[C@H](CCC(N)=O)NC(=O)[C@H](Cc1cccs1)NC(=O)[C@H](CC(C)C)NC(=O)OCc1ccccc1
-- reply 4500 M⁻¹ s⁻¹

-- ask Moving on to the next compound: CCOC(=O)/C=C/[C@H](CCC(N)=O)NC(=O)[C@H](Cc1ccc(C)cc1)NC(=O)[C@H](CC(C)C)NC(=O)OCc1ccccc1
-- reply 5300 M⁻¹ s⁻¹

-- ask And then CCOC(=O)/C=C/[C@H](CCC(N)=O)NC(=O)[C@H](Cc1ccccc1)NC(=O)[C@H](CC(C)C)NC(=O)SCc1ccccc1 , what is it?
-- reply 75000 M⁻¹ s⁻¹

-- ask Next: CCOC(=O)/C=C/[C@H](CCC(N)=O)NC(=O)[C@H](Cc1ccccc1)NC(=O)[C@H](CC(C)C)NC(=O)SCC
-- reply 20000 M⁻¹ s⁻¹

-- ask And for CCOC(=O)/C=C/[C@H](CCC(N)=O)NC(=O)[C@H](CC1CCCCC1)NC(=O)[C@H](CC(C)C)NC(=O)OCc1ccccc1 ?
-- reply 3500 M⁻¹ s⁻¹

###

Please respond with reported K obs / 1 for every item in the list.
- testSystem: UniProt Q4U254
- Sequence (whole entry): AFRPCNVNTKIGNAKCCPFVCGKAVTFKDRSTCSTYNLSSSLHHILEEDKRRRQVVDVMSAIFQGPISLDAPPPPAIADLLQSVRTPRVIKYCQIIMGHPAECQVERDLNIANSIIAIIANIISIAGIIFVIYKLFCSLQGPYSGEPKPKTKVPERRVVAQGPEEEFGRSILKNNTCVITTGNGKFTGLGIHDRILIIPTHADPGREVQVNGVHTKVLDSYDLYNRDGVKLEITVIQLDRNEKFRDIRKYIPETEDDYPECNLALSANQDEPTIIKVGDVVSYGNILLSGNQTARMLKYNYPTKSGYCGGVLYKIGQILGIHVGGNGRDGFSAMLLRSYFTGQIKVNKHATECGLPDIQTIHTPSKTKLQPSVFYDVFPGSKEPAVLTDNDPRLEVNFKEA
- protocolText: Binding affinity on human Rhinovirus 3C protease (rhinovirus serotype 2)
Answer in M⁻¹ s⁻¹, number only, no unit symbol.

-- ask Record request: K obs / 1 value, item CCOC(=O)/C=C/[C@H](CCC(N)=O)NC(=O)[C@H](Cc1ccc(OC)cc1)NC(=O)[C@H](CC(C)C)NC(=O)OCc1ccccc1
-- reply 1100

-- ask Param item: CCC[C@H](NC(=O)[C@H](CC(C)C)NC(=O)OCc1ccccc1)C(=O)N[C@H](/C=C/C(=O)OCC)CCC(N)=O
-- reply 600

-- ask Another: CCOC(=O)/C=C/[C@H](CCC(N)=O)NC(=O)[C@H](Cc1cccs1)NC(=O)[C@H](CC(C)C)NC(=O)OCc1ccccc1
-- reply 1800

-- ask And CCOC(=O)/C=C/[C@H](CCC(N)=O)NC(=O)[C@H](Cc1ccccc1)NC(=O)[C@H](CC(C)C)NC(=O)SCC ?
-- reply 8900

-- ask Try the compound CCOC(=O)/C=C/[C@H](CCC(N)=O)NC(=O)[C@H](Cc1ccc(CCO)cc1)NC(=O)[C@H](CC(C)C)NC(=O)OCc1ccccc1
-- reply 700

-- ask Okay, and CCOC(=O)/C=C/[C@H](CCC(N)=O)NC(=O)[C@H](Cc1ccc(C)cc1)NC(=O)[C@H](CC(C)C)NC(=O)OCc1ccccc1 ?
-- reply 1400

-- ask Now the compound CCOC(=O)/C=C/[C@H](CCC(N)=O)NC(=O)[C@H](Cc1ccccc1)NC(=O)[C@H](CC(C)C)NC(=O)SCc1ccccc1
-- reply 28400

-- ask Cool, now CCOC(=O)/C=C/[C@H](CCC(N)=O)NC(=O)[C@H](Cc1ccc(F)cc1)NC(=O)[C@H](CC(C)C)NC(=O)OCc1ccccc1
-- reply 2400

###

- testSystem: Human rhinovirus A protease (Human rhinovirus sp.) (UniProt Q4U254)
- protocolText: Binding affinity on human Rhinovirus 3C protease (rhinovirus serotype 14)
Returns criterion met if the recorded K obs / 1 is greater than or equal to 20000 M⁻¹ s⁻¹, and criterion not met otherwise.

-- ask Is the recorded value of K obs / 1 equal to or greater than 20000 M⁻¹ s⁻¹ for this molecule? CCOC(=O)/C=C/[C@H](CCS(C)(=O)=O)NC(=O)[C@H](Cc1ccccc1)NC(=O)[C@H](CC(C)C)NC(=O)OCc1ccccc1
-- reply criterion not met

-- ask And for CCOC(=O)/C=C/[C@H](CCC(C)O)NC(=O)[C@H](Cc1ccccc1)NC(=O)[C@H](CC(C)C)NC(=O)OCc1ccccc1 (some centres not stated) ?
-- reply criterion not met

-- ask How about CCOC(=O)/C=C/[C@H](CCC(N)=O)NC(=O)[C@H](CSCC)NC(=O)[C@H](CC(C)C)NC(=O)OCc1ccccc1 ?
-- reply criterion not met

-- ask Another molecule to look at: CCOC(=O)/C=C/[C@H](CCC(N)=O)NC(=O)[C@H](Cc1ccccc1)NC(=O)[C@H](CC(C)C)NC(=O)SCC
-- reply criterion met

-- ask // repeat for CCOC(=O)/C=C/[C@H](CCC(N)=O)NC(=O)[C@H](Cc1ccccc1)NC(=O)[C@@H](NC(=O)OCc1ccccc1)[C@@H](C)CC and report
-- reply criterion met

-- ask Then what about the molecule CCOC(=O)/C=C/[C@H](CCC(N)=O)NC(=O)[C@H](Cc1ccccc1)NC(=O)[C@H](CCc1ccccc1)NC(=O)OCc1ccccc1 ?
-- reply criterion met
